The measurements presented in this section are drawn from ChEMBL document CHEMBL4673340.

Assay: Drug level in C57BL/6 mouse brain at 10 mg/kg, po after 1 hrs
Assay type: ADME, organism-based
Conditions: read-out: Drug uptake
Readout kind: concentration at 1 h (ng/g)
// note: answer is a bare numeric in ng/g

Input C[C@]12CCCN1CC1=NNC(=O)c3cc(F)cc4[nH]c2c1c34 . Output concentration at 1 h: 613

----------
Molecular target: Cytochrome P450 2C8 (Homo sapiens, UniProt P10632)
Sequence (P10632 whole entry): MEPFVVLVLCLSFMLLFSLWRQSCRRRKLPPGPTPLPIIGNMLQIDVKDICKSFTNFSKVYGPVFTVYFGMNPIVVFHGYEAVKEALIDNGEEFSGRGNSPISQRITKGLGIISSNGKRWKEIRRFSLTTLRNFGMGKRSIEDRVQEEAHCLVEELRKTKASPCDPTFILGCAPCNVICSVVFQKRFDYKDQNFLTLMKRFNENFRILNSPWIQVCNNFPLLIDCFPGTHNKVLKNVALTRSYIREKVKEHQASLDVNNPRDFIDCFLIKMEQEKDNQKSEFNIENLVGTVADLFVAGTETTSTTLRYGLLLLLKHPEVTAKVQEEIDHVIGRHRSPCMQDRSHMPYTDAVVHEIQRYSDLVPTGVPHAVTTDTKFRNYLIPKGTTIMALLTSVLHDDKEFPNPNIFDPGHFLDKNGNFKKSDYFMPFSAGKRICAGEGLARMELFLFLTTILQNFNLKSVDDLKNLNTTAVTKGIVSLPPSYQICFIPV
pIC50: −log10 of the molar value.
Readout kind: pIC50

Per the reported Cytochrome P450 2C8 (Homo sapiens, UniProt P10632) data, C[C@]12CCCN1CC1=NNC(=O)c3cc(F)cc4[nH]c2c1c34 has pIC50 of < 5.00
